Would you mind telling me the reported ELISA [abs. corr.] of each entry?
Molecular target: T1, CD27 protein (His-tagged, Sino Biological Inc. 10039-H08B1) (human, UniProt P26842 20-192)
T1 construct: bought protein coated on ELISA plates; also called TNFRSF7; not shown: His tag
T1 sequence (looked up): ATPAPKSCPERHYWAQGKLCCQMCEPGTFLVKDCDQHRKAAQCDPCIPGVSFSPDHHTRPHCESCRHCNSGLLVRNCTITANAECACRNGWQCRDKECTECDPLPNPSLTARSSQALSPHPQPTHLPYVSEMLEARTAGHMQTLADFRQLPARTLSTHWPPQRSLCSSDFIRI
Assay: ELISA, coated His-tagged CD27; further: test concentration or dose not given here
Give the value, in units of abs. corr., as a plain number.

Exercise: Note down ELISA [abs. corr.] recorded for P018.S.06.A.H05 (antibody, V domains shown, V regions on human Ig constant parts; also called AB27_112) VH: QSLEESGGDLVQPEGSLTLTCKASGFDFSSTYWICWVRQAPGKGLEWIGCIDDSYAYTYYASWAKGRFTISKPSSTTVTLQVTSLTVADTATYFCARDGYPGYGVGSFNLWGPGTLVTVSS VL: AIVMTQTPSSKSVPVGDTVTINCQASESVYSNNRLAWFQQKPGQPPKLLIYLASTLASGVPSRFKGSGSGTQFTLTISDVVSDDAATYYCAGYKSYSDDGTGFGGGTEVVVK
Solution: 2.98

Exercise: Note down ELISA [abs. corr.] recorded for P018.S.07.A.D05 (antibody, V domains shown, V regions on human Ig constant parts; also called AB27_124) VH: QSLEESGGDLVKPEGSLTLTCTASGFSFSSSYWICWVRQAPGKGLEWIGCMITGRGNTYYATWAKGRFTISKTSSTTVTLQMTSLTAADTATYFCARGPGGADPINLWGPGTLVTVSS VL: DVVMTQTPASVSEPVGGTVTIKCQASQNIYNNLAWYQQKPGQPPKLLIYLASTLASGVPSRFEGSGSGTEFTLTISGVQSDDAATYYCQSTYDGSSYVPNAFGGGTEVVVK
Solution: 3.08

Exercise: Note down ELISA [abs. corr.] recorded for P018.S.10.A.F04 (antibody, V domains shown, V regions on human Ig constant parts; also called AB27_180) VH: QSVEESGGRLVTPGTPLTLTCTASGFYLSSHYMSWVRQAPGKGLEWIGIIYATGIASYANWAKGRFTISKTSTTVSLKMTSPTTEDTATYFCARYDSQDYYGYGNLWGPGTLVTVSS VL: AYDMTQTPASVEVAVGGTVTIKCQASQNIYNNLAWYQQKPGQRPKLLIYRASTLASGVSSQFKGSGSGTEYTLTISGVESADAATYYCQQGYSVHDVYNTFGGGTEVVVK
Solution: 2.89
